Each entry below carries its reported melting point.

// known answers, use as guide
1. CCn1c2ccccc2c2sccc(=O)c21 :: 103 to 104 °C
2. CSc1ccc2nccn2n1 :: 66 to 68 °C
3. Ic1ncnc2c1ncn2Cc1ccccc1 :: 152 to 153 °C
4. COc1cc(O)c(C(=O)c2ccccc2)cc1CN(C)C :: 69 °C
5. O=C(O)C(=O)c1cn2c3c(cccc13)CCC2 :: 152 to 155 °C

Query block: Record request: melting point value, item `CCOC(=O)C1=C(Cl)C(OCC)=NS1(=O)=O`
Result block: 134 to 136 °C

Query block: Record request: melting point value, item `CCOc1ccc(C2=NN(C3CCN(C(=O)CCl)CC3)C(=O)[C@@H]3CC=CC[C@H]23)cc1OCC`
Result block: 135 to 136 °C

Query block: Record request: melting point value, item `CNS(=O)(=O)c1ccc(N2CCN(c3ccncc3)CC2)cc1`
Result block: 204 to 206 °C

Query block: Record request: melting point value, item `CCCOc1nc2c(Cl)scc2c(=O)n1CCC`
Result block: 93 to 95 °C

Query block: Record request: melting point value, item CC(=O)N1CCCc2ccc(C(C)NC(=O)C=Cc3ccccc3)cc21 (stereo unspecified)
Result block: 65 to 68 °C

Query block: Record request: melting point value, item `CCN(CC)C(=O)N1SN(C(C)C)C(=O)c2ccccc21`
Result block: 103 to 104 °C

###

Endpoint label: melting point

// known answers, use as guide
1. CCCNc1nc(OCC)nc2cscc12 :: 140 to 142 °C
2. COC(=O)C(C)(C)CCCOc1cc(C)c(NC(C)=O)cc1C :: 99 to 100 °C
3. Cc1c(S(=O)(=O)Nc2ccc3[nH]cc(CCN(C)C)c3c2)sc2ccc(Cl)cc12 :: 226 to 227 °C

Query block: Record request: melting point value, item `CC(=O)N(c1cccc(C(F)(F)F)c1)c1cccc(C(F)(F)F)c1`
Result block: 73 to 74 °C

Query block: Record request: melting point value, item CN(C)c1ccc(NC(=O)CCC2(c3ccc(Cl)cc3)Nc3cccnc3N2)cc1 (stereo not given)
Result block: 216 to 218 °C

###

Endpoint label: melting point

1) CCN1C(=O)C(C(=O)c2ccco2)c2cc(Cl)cnc21 (stereo unspecified) :: 162 to 163 °C
2) CCOCCCOc1ccc2c(c1)C(N(CC)S(C)(=O)=O)CC(C)(C)O2 (stereo unspecified) :: 72 to 74 °C
3) Cc1ccc(=NC#N)n(-c2cccc(C(F)(F)F)c2)c1 :: 165 °C
4) CC(C)(C)OC(=O)C1CSC(c2cccc(F)c2F)N1 (mixture of isomers) :: 120 °C
5) Cc1ccc(Oc2cccc(-c3cccc(C(=O)NCCC#N)c3)n2)c(C)c1 :: 114 to 115 °C

Query block: Record request: melting point value, item `CC(C)(C)c1ccc(C(=O)CCC(=O)O)cc1`
Result block: 117 to 120 °C

Query block: Record request: melting point value, item `CN1C(=S)[C@H](NC(=O)OCc2ccccc2)N=C(c2ccccc2)c2ccccc21`
Result block: 128 to 131 °C

Query block: Record request: melting point value, item `O=C1CCc2cc(Cl)cc(Cl)c21`
Result block: 119 to 120 °C

Query block: Record request: melting point value, item `CN(C)S(=O)(=O)c1cc([N+](=O)[O-])ccc1Cl`
Result block: 138 to 140 °C

Query block: Record request: melting point value, item CC1CC2C3=C(C(O)CC2(C)C1C(=O)CO)C1(C)C=CC(=O)C=C1C(F)C3 (stereo unspecified)
Result block: 173 °C

Query block: Record request: melting point value, item `O=c1[nH]c2ccccc2n1Cc1cccnc1`
Result block: 160 °C

Query block: Record request: melting point value, item `CCOC(=O)C1CCN(C(=O)/C=C/c2ccc(Sc3ccc4c(c3)OCCO4)c([N+](=O)[O-])c2)CC1`
Result block: 78 to 88 °C

Query block: Record request: melting point value, item CCC(=O)OCC1OC(n2c(Cl)c(C=O)c3cc(Cl)c(Cl)cc32)C(O)C1O (stereo unspecified)
Result block: 139 to 140 °C

Query block: Record request: melting point value, item O=C(O)CSC1c2ccccc2COc2ccc(OCc3ccc4ccccc4n3)cc21 (stereo unspecified)
Result block: 174 to 179 °C

Query block: Record request: melting point value, item CC(C)C1Cc2cnc3c(c2C1(O)CC#N)CCO3 (stereo unspecified)
Result block: 169 to 170 °C

Query block: Record request: melting point value, item CC1(C)CCC(C)(C)c2cc(C(O)C#Cc3ccc(C(=O)O)cc3)ccc21 (stereo unspecified)
Result block: 146 to 147 °C

Query block: Record request: melting point value, item `CCOc1nsnc1S(C)(=O)=O`
Result block: 94 to 95 °C

Query block: Record request: melting point value, item `Cc1ccc(S(=O)(=O)N(Cc2cc(C(C)(C)C)c(O)c(C(C)(C)C)c2)c2cccnc2)cc1`
Result block: 121 to 123 °C

Query block: Record request: melting point value, item CC(=O)C(C)OC(=O)CC[C@H]1NC(=O)[C@@H]1N1C(=O)c2ccccc2C1=O (stereo partly specified)
Result block: 135 to 145 °C

Query block: Record request: melting point value, item `CC(C)Cc1nc(Cc2ccccc2)c2c(c1O)COC2`
Result block: 174 to 175 °C

Query block: Record request: melting point value, item CC(C)(C)OC(=O)C(CCCCNC(=O)OCc1ccccc1)NC(=O)C(F)(F)F (stereo unspecified)
Result block: 77 to 79 °C

###

Each entry below carries its reported melting point.

1. COc1nc(NCCCN2CCOCC2)nc(OC)c1NC(=O)c1csc(Oc2cccc(C(C)(C)C)c2)n1 :: 68 °C

Query block: Record request: melting point value, item `CCCc1c(C(N)=O)sc(SC)c1-c1oncc1-c1ccccc1`
Result block: 140 to 141 °C

Query block: Record request: melting point value, item COC12CCCCC1CC(c1ccccc1)=NN2S(=O)(=O)c1ccc(C)cc1 (stereo unspecified)
Result block: 112 to 114 °C

Query block: Record request: melting point value, item `NCCCOc1ccc(-c2nnc(CSCCOc3ccccc3)o2)cc1`
Result block: 30 to 35 °C

Query block: Record request: melting point value, item `CCOC(=O)CC(=O)c1cc(F)c(F)c(Br)c1Cl`
Result block: 47 to 51 °C

Query block: Record request: melting point value, item `CCCCCCC1(CCCCCC)c2ccccc2-c2ccccc21`
Result block: 31 to 33 °C

###

Each entry below carries its reported melting point.

1. C#CCN(Cc1cc2c(=O)n(C)c(CO)nc2cc1Cl)c1ccc(C(=O)OC(C)(C)C)cc1 :: 109 to 111 °C
2. C#Cc1ccc(C(=O)NCC(N)C(c2ccccc2)(c2ccccc2)c2ccccc2)cc1 (configuration not stated) :: 50 to 51 °C
3. CCc1cc(C(=O)c2ccccc2Cl)c(-n2c(C)nnc2CNC(=O)/C=C/c2ccccc2N)s1 :: 141 to 143 °C
4. OCc1ccnc(Br)c1 :: 63.3 to 64.4 °C
5. CSc1[nH]c(-c2ccccc2C)cc1C#N :: 148 to 149 °C

Now for another entry.
Query block: Record request: melting point value, item `CNC(=O)c1cc(NC(=O)c2ccc(C)c(Nc3nccc(N4C=CC=NC4)n3)c2)cc(N2CCOCC2)c1`
Result block: 153 to 156 °C

###

Endpoint label: melting point

1. COc1cc(N[C@H]2CC[C@H](NCc3ccccc3)CC2)c(Cl)cc1C(N)=O :: 204 to 206 °C
2. Cc1c(CCc2ccc3nc(N)oc3c2)nc2cc(CN)ccn12 :: 218 to 221 °C
3. CCCCn1c(=O)c2c(ncn2S(=O)(=O)Cc2ccccc2)n(CCCC)c1=O :: 117 to 118 °C
4. O=C1Nc2ccccc2N2CCN(CCc3ccccn3)CC12 (stereo unspecified) :: 167 to 169 °C
5. CC(=O)N(O)CC1=C(n2ccccc2=O)c2cc(C(F)(F)F)ccc2OC1(C)C :: 188 °C
6. O=C(Cc1ccc(Cl)cc1Cl)c1ccncc1 :: 77 °C

Query block: Record request: melting point value, item `CNc1cc(CCN)ccc1OC`
Result block: 90 to 92 °C

Query block: Record request: melting point value, item `CC=CN(C=CC)c1ccc2[nH]c3cnc(C(=O)OCC)cc3c2c1`
Result block: 235 to 238 °C

Query block: Record request: melting point value, item CC(C)NCC(O)COc1nccnc1Cl (stereo unspecified)
Result block: 99 to 100 °C

Query block: Record request: melting point value, item CNC[C@@H]1c2ccccc2Oc2ccc(Cl)cc2[C@H]1C(=O)O (relative stereo)
Result block: 154 °C

Query block: Record request: melting point value, item `O=C(NCCCCc1ccccc1)Oc1ccc2oc3ccccc3c2c1`
Result block: 113 to 114 °C
